Measured Kd accompanies every entry in the list below.
B1: scFv; the commonest letter at each place (parent)
chain 1: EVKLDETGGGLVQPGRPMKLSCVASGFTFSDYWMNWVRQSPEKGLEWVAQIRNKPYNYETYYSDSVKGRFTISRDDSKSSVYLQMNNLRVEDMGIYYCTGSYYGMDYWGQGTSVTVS
chain 2: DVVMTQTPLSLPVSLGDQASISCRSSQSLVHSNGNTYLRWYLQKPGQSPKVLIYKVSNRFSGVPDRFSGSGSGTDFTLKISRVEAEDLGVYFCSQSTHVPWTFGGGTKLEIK

Variants of: B1
Assay: Kd (Tite-Seq)
Conditions: with fluorescein; format: scFv 4-4-20, heavy + light

mutant_id="chain 1 F29R D31K" attribute_measured=Kd result_value="≥ 10 µM"
mutant_id="chain 1 G100C Y107S" attribute_measured=Kd result_value="2.88 µM"
mutant_id="chain 1 S101T Y107E" attribute_measured=Kd result_value="≥ 10 µM"
mutant_id="chain 1 M105E Y107C" attribute_measured=Kd result_value="≥ 10 µM"
mutant_id="chain 1 S30K W33L" attribute_measured=Kd result_value="≥ 10 µM"

Kindly review the next variant as well.
Request: Using the record for chain 1 F29M Y32M , report its Kd.
Response: 0.0171 µM

Taken from the FLAb antibody collection (doi:10.7554/elife.23156).
